We begin with a simple list: items and their reported pEC50.
# measured-target: human activated kallikrein enzyme (plasma kallikrein) (Homo sapiens (Human))
# Sequence (P03952 391-638): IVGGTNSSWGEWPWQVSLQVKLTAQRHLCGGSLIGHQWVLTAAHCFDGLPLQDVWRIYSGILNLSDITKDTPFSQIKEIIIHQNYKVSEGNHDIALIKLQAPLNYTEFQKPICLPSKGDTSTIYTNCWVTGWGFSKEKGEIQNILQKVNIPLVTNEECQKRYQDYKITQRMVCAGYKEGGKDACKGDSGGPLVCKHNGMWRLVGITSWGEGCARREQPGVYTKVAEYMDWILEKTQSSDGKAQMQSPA
# Sequence (P03952 20-390 partner): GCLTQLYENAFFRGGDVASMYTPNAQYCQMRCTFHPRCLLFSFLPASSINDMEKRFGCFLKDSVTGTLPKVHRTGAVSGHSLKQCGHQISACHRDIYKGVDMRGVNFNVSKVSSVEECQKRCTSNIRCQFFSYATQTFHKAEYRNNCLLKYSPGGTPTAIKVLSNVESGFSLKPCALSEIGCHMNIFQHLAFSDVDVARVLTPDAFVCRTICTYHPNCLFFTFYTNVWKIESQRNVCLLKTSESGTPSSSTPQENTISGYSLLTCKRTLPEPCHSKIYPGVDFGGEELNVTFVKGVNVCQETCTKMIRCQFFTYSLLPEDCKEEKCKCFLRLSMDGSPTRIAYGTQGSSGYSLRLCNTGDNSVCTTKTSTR
# experiment-description: Inhibition of human activated plasma kallikrein, fluorogenic peptide substrate assay, 500 pM enzyme format
# Format: biochemical
# measurement-conditions: 500 pM activated kallikrein enzyme, 300 uM Pro-Phe-Arg-7-amido-4-methylcoumarin substrate, 30 min preincubation, 10 min at RT; read-out: Primary Dose Response Assay: Average EC50
pEC50: −log10 of the molar value.

structure-notation	pEC50
Cn1c(Cn2cc(C(=O)NCc3ncn4ccc(Cl)c(F)c34)nn2)cc2cc(C3CC3)ccc21	8.00 to 9.00
O=C(NCc1ncn2ccc(Cl)c(F)c12)c1cn(Cc2cn3nccc(CC4COC4)c3n2)nn1	7.00 to 8.00
O=C(NCc1ncn2ccc(Cl)cc12)c1cnn(Cc2cn3cc(C4CC4)ccc3n2)c1	> 9.00

Lab note: next molecule to report on.
Lab note: measured pEC50 of CCOC(=O)C(C)(C)Oc1cc(C2CC2)cn2cc(Cn3cc(C(=O)NCc4ncn5ccc(Cl)c(F)c45)nn3)nc12 was > 9.00
